Where these numbers come from: paper PMC8018184

# System: L. donovani promastigotes
# protocolSummary: Promastigote growth inhibition in the presence of an iron chelator (DFO or DFP), isobologram
# Assay type: cell-based, Leishmania donovani
# studyConditions: Leishmania donovani; no DFO; read-out: IC50 against promastigotes, absence of DFO (Table S4)
measurementType: pIC50
In plain terms, pIC50 is the concentration in mol/L turned into minus its base-10 logarithm.

Hi! What's the reported pIC50 for `CO[C@]1(C)OOC(c2ccccc2)(c2ccccc2)C[C@@H]1CNCCCn1ccnc1` on L. donovani promastigotes? 5.12

----------
# Test system: L. donovani promastigotes (MHOM/NP/02/BPK282/0cl4)
# protocolSummary: Promastigote growth inhibition assay (alamarBlue)
# Type: cell-based, Leishmania donovani
# studyConditions: Leishmania donovani, 72 h, read-out: IC50 (concentration causing 50% growth inhibition) against promastigotes of L. donovani
measurementType: pIC50
In plain terms, pIC50 is the concentration in mol/L turned into minus its base-10 logarithm.

What does the record list as pIC50 for CC(=O)N(O)CCCCCNC(=O)CCC(=O)N(O)CCCCCNC(=O)CCC(=O)N(O)CCCCCN [DFO, desferrioxamine, reference compound] ? 3.73
